tested on: Lovenox ® Activity in Blood from Patients Treated with Lovenox ®; test: Neutralizing Lovenox activity in blood from patients treated with Lovenox (anti-Factor Xa assay); format: biochemical, human; conditions: Peptide 12 μg/ml; blood of Lovenox-treated Patient Number 5
Ends that are not written are not given here.
Label condition met when Lovenox ® Neutralized >= 0.1 U/ml; otherwise condition not met.

• VLVLARKKAAKAPARKKAAKAVLVL = condition not met

Decide: is the reported value of Lovenox ® Neutralized for ARKKAAKAARKKAAKAARKKAAKAARKKAAKA [(ARKKAAKA)4] equal to or greater than 0.1 U/ml?
condition met

Would you mind doing ARKKAAKAARKKAAKAARKKAAKAVLVLVL [(ARKKAAKA)3VLVLVL] as well?
condition met

Another substance to look at: ARKKAAKAAAAAAAAAAAAAAAAAARKKAAKA [ARKKAAKA(A16)ARKKAAKA, reference compound]
condition not met

What about this substance? VLVL(ARKKAAKA)3ARKKCAKA (VLVLARKKAAKAARKKAAKAARKKAAKAARKKCAKA; Fragment)
condition met

Would you kindly repeat that for ARKKAAKAARKKAAKAARKKAAKAVLVLVLVL [(ARKKAAKA)3VLVLVLVL] ?
condition met
